system: arrhythmias produced by aconitine; assay: in vivo; assay type: in vivo, rats (Sprague Dawley); conditions: from maximum effect; quinidine = 1.00
Readout label: R.M.E. (relative maximum effectiveness, based on quinidine = 1.00)
Lab note: record just the number, no unit beside it.

Challenge: Record C=C[C@H]1C[N@@]2CC[C@H]1C[C@@H]2[C@@H](O)c1ccnc2ccc(OC)cc12 [Quinidine, reference compound] : what is its R.M.E. (relative maximum effectiveness, based on quinidine = 1.00) with arrhythmias produced by aconitine?
Response given: 1.00

Challenge: Record FC(F)(F)c1cccc(CN2CC3CC(CN(Cc4ccccc4)C3)C2)c1 : what is its R.M.E. (relative maximum effectiveness, based on quinidine = 1.00) with arrhythmias produced by aconitine?
Response given: 1.82

Challenge: Record Fc1ccc(CN2CC3CC(CN(Cc4ccccc4)C3)C2)cc1 : what is its R.M.E. (relative maximum effectiveness, based on quinidine = 1.00) with arrhythmias produced by aconitine?
Response given: 1.80

Challenge: Record c1ccc(CN2CC3CC(C2)CN(C(c2ccccc2)c2ccccc2)C3)cc1 : what is its R.M.E. (relative maximum effectiveness, based on quinidine = 1.00) with arrhythmias produced by aconitine?
Response given: 1.54

Challenge: Record c1ccc(CN2CC3CC(C2)CN(CC(c2ccccc2)c2ccccc2)C3)cc1 : what is its R.M.E. (relative maximum effectiveness, based on quinidine = 1.00) with arrhythmias produced by aconitine?
Response given: 1.53

Challenge: Record Clc1cccc(CN2CC3CC(CN(Cc4ccccc4)C3)C2)c1 : what is its R.M.E. (relative maximum effectiveness, based on quinidine = 1.00) with arrhythmias produced by aconitine?
Response given: 0.92

Challenge: Record Clc1ccc(CN2CC3CC(CN(Cc4ccccc4)C3)C2)cc1Cl : what is its R.M.E. (relative maximum effectiveness, based on quinidine = 1.00) with arrhythmias produced by aconitine?
Response given: 2.13

----------
assay: toxic effect: dose at which first toxic symptoms such as cyanosis or changes in ECG occur; assay type: in vivo, rats (Sprague Dawley); conditions: rat, in vivo, po
Readout label: selectivity ratio
Lab note: record just the number, no unit beside it.

Challenge: Quick one: selectivity ratio for C=C[C@H]1C[N@@]2CC[C@H]1C[C@@H]2[C@@H](O)c1ccnc2ccc(OC)cc12 [Quinidine, reference compound] ?
Response given: 10.9
